# Test system: NLRP3 (IL-1β secretion from THP-1 cells)
# Test name: IL-1β secretion assay in 384-well plates, PMA differentiated THP-1 cells, LPS and nigericin stimulation
# Assay type: cell-based
# Experimental conditions: Homo sapiens; THP-1 cells, PMA 5 ng/mL, LPS 25 ng/mL, nigericin, IL-1β ELISA, 384-well; read-out: Activity
Measured attribute: log10(IC50) (log10 of the value in µM)
Answers are given as log10 of IC50 in µM.

Here's what some known entries look like.
CCOc1nn(CC(=O)N[C@H]2C[C@@](C)(O)C2)c(=O)cc1-c1ccccc1    1.47
CC(C)c1nn(CC(=O)Nc2ncc(F)cn2)c(=O)cc1-c1cc(F)cc(F)c1    -0.63
Cc1ccccc1-c1cc(=O)n(CC(=O)N[C@H]2C[C@@](C)(O)C2)nc1C(C)C    0.82
CC(CF)c1nn(CC(=O)Nc2ncc(F)cn2)c(=O)cc1-c1cc(F)cc(F)c1 (stereo not drawn)    0.03

// field: log10(IC50); key: "CCc1nn(CC(=O)N[C@H]2C[C@@](C)(O)C2)c(=O)cc1-c1ccccc1" ; value = 0.83

Lab note: "CCN1CCC[C@@H](NC(=O)Cn2nc(C(C)C)c(-c3cc(F)cc(F)c3F)cc2=O)C1" gave log10(IC50) of -0.19

Noted for "CC(C)c1nn(CC(=O)Nc2ncncc2F)c(=O)cc1-c1cc(F)cc(F)c1" : its log10(IC50) reads -0.49

Lab note: "CC(C)c1nn(CC(=O)N[C@H]2C[C@@](C)(O)C2)c(=O)cc1-c1ccccc1F" gave log10(IC50) of 0.46

// log10(IC50) value for "O=C(Cn1nc(C(F)F)c(-c2cc(F)cc(F)c2)cc1=O)Nc1ncc(F)cn1" : 0.44

Looking up "CC(C)c1nn(CC(=O)N[C@H]2C[C@@](C)(O)C2)c(=O)cc1-c1cccc(Br)c1" , I see its log10(IC50) listed as 0.17

Per the record, "CCN1CCC[C@@H](NC(=O)Cn2nc(C3CCC3)c(-c3cccc(F)c3)cc2=O)C1" has log10(IC50) of 0.16

Lab book: log10(IC50) of "CC(C)c1nn(CC(=O)Nc2ncncc2F)c(=O)cc1-c1cc(F)cc(Cl)c1" noted as -0.20

Summary for this compound, "Cc1cccc(-c2cc(=O)n(CC(=O)N[C@H]3C[C@@](C)(O)C3)nc2C(C)C)c1" : log10(IC50) is 0.36

The compound listed as "CCOc1cccc(-c2cc(=O)n(CC(=O)N[C@H]3C[C@@](C)(O)C3)nc2C(C)C)c1" shows log10(IC50) equal to 0.93

// log10(IC50) value for "Cc1ccc(F)c(-c2cc(=O)n(CC(=O)N[C@H]3C[C@@](C)(O)C3)nc2C(C)C)c1" : 0.28

Data origin: patent US20230348437A1
